# System: A. baumannii A489
# methodDescription: MIC without and with sub-inhibitory polymyxin B (Example 4)
# Format: cell-based, Acinetobacter baumannii
# experimentalContext: Acinetobacter baumannii, A489, A. baumannii A489; +[…] PB; 2nd experiment; read-out: MIC
measuredQuantity: MIC

Check out these entries, answers already filled in.
molecule	targetEntity	MIC
Cc1c(-c2ccc(N)c(F)c2)ccn2c(=O)c(C(=O)O)cc(C3CC3)c12	A. baumannii A489	≤ 0.03 µg/mL
Cc1c(-c2cc(F)c(N)cc2F)ccn2c(=O)c(C(=O)O)cc(C3CC3)c12	A. baumannii A489	≤ 0.03 µg/mL

Entry under test: Cc1c(-c2ccc(CN)c(F)c2)ccn2c(=O)c(C(=O)O)cc(C3CC3)c12 . Its MIC was ≤ 0.03 µg/mL

Entry under test: NCC[C@H](O)C(=O)N[C@@H]1C[C@H](N)[C@@H](O[C@H]2O[C@H](CN)[C@@H](O)[C@H](O)[C@H]2O)[C@H](O)[C@H]1O[C@H]1O[C@H](CO)[C@@H](O)[C@H](N)[C@H]1O [Amikacin, reference compound] . Its MIC was 64 µg/mL
